The following variants are listed with their measured protein stability index values.
B1: SPOPL (parent)
chain: AKREETKAMESQRAYRFVQGKDWG

- Variants of: B1
- Experimental Details: protein stability index of a GFP-peptide fusion (GPS, HEK-293T) (PSI 1-6); higher = more stable;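 further: lentivirally expressed fusions sorted by FACS into six bins by GFP to DsRed ratio, PSI derived from sequencing read proportions per bin multiplied by bin number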
- Cond: c terminus: a fixed tail appended
Respond with the number and no other words.

Before answering, review these 10 worked examples.
R13E
4.24
E10V
2.75
R16M
3.65
K7N
3.25
E5Q
2.32
W23Y
4.05
Q12G
2.76
M9H
3.25
G24R
3.73
K7P
3.37

Next up:
Data request: Endpoint output: protein stability index of `F17V` . Value?
Data returned: 3.94
